Tested on: SNB-19 CNS
Assay: NCI tumour cell line growth inhibition, 48 h
Entries annotated with measured GI50
Assay readout: GI50

[
  {
    "Structure notation": "CCN(C(=O)N1CCN(c2cc3c(cc2F)c(=O)c(C(=O)O)cn3C2CC2)CC1)c1nc(-c2ccc(C)cc2)cs1",
    "Result": "1.03 µM"
  },
  {
    "Structure notation": "CN(C)CCCN1c2ccccc2CCc2ccc(Cl)cc21",
    "Result": "6.42 µM"
  },
  {
    "Structure notation": "O=C1c2c(c3c4ccccc4[nH]c3c3ccc4ccccc4c23)C(=O)N1CCN1CCCCC1",
    "Result": "0.94 µM"
  },
  {
    "Structure notation": "CC(C)(C)c1ccc(OCCCCCCN2CCNCC2)cc1",
    "Result": "8.06 µM"
  },
  {
    "Structure notation": "CN1CCN(Cc2ccc(NC(=O)c3cncc(C#Cc4cnc(N)c5ccncc45)c3)cc2C(F)(F)F)CC1",
    "Result": "3.23 µM"
  }
]

----------
Tested on: DLD-1 colon
Assay: NCI tumour cell line growth inhibition, 48 h
The compounds listed here are annotated with their TGI.

[
  {
    "Compound": "COc1ccc(NC(=O)C/C(C)=N\\N=C(N)N)c([N+](=O)[O-])c1",
    "Target system": "DLD-1 colon",
    "TGI": "> 100 µM"
  },
  {
    "Compound": "NC(=O)NN=C(CS)CS",
    "Target system": "DLD-1 colon",
    "TGI": "> 65.5 µM"
  },
  {
    "Compound": "Nn1c(-c2ccccc2Cl)nc2ccccc2c1=O",
    "Target system": "DLD-1 colon",
    "TGI": "> 100 µM"
  },
  {
    "Compound": "Cc1c2cc[n+](CCN3CCCCC3)cc2c(C)c2c1[nH]c1ccc(O)cc12",
    "Target system": "DLD-1 colon",
    "TGI": "49.6 µM"
  },
  {
    "Compound": "O=C(O)C1(P(=O)(O)O)CC1",
    "Target system": "DLD-1 colon",
    "TGI": "> 100 µM"
  },
  {
    "Compound": "COC1CC(OS(=O)(=O)c2ccc(C)cc2)C(OC(=O)c2ccccc2)C(C)O1 (stereo unspecified)",
    "Target system": "DLD-1 colon",
    "TGI": "> 100 µM"
  }
]

----------
Test system: UACC-62 melanoma
Test: NCI tumour cell line growth inhibition, 48 h
Each entry below carries its recorded log10 of TGI.
Assay readout: log10 of TGI (log10 of the value in µM)

[
  {
    "Molecule": "CC(CN1CCN(CCOCCO)CC1)CN1c2ccccc2Sc2ccc(Cl)cc21 (stereo unspecified)",
    "Result": 0.54
  },
  {
    "Molecule": "COC(=O)C1=CSC2(S1)C(C(=O)OC)=CSc1c2ssc1=Nc1ccccc1 (stereo unspecified)",
    "Result": 0.55
  },
  {
    "Molecule": "O=C1OC(CCCl)(c2ccccc2)CC1CN1CCOCC1 (stereo unspecified)",
    "Result": 1.69
  },
  {
    "Molecule": "O=c1cc(-c2ccccc2)[nH]c2cc(O)ccc12",
    "Result": 1.67
  },
  {
    "Molecule": "CN(C)CCCN1c2ccccc2CCc2ccc(Cl)cc21",
    "Result": 0.52
  },
  {
    "Molecule": "CN(C)c1ccc(/C=C\\c2cccc[n+]2C)cc1",
    "Result": 1.76
  },
  {
    "Molecule": "CN(C(=O)Cc1cc(Cl)c(Cl)cc1N=C=S)[C@H]1CCCC[C@@H]1N1CCCC1",
    "Result": 1.48
  },
  {
    "Molecule": "CCN1CCC(CCOC)(CN2c3ccccc3Sc3ccc(Cl)cc32)C1 (stereo unspecified)",
    "Result": 0.58
  },
  {
    "Molecule": "COc1cc2nc(N3CCCC3)nc(NCC3CCCCC3)c2cc1OC",
    "Result": 0.51
  }
]

----------
Test system: NCI-H226 lung
Assay: NCI tumour cell line growth inhibition, 48 h

[
  {
    "Molecule": "CC(C)CC(CC1=CCC2CC1C2(C)C)C1=C(O)C(C)(C)C(=O)C(C)(C)C1=O (stereo not given)",
    "TGI": "9.46 µM"
  },
  {
    "Molecule": "COc1ccc([C@@H]2ON(C)[C@H]3CN(C)C(=O)[C@@H]23)cc1",
    "TGI": "> 100 µM"
  },
  {
    "Molecule": "O=C(NCc1cccnc1)NCc1cccnc1",
    "TGI": "> 100 µM"
  },
  {
    "Molecule": "COc1cc(/C=C2/CCS(=O)(=O)c3ccc(C)cc3C2=O)cc(OC)c1OC",
    "TGI": "45.9 µM"
  },
  {
    "Molecule": "CC(CN1CCN(CCOCCO)CC1)CN1c2ccccc2Sc2ccc(Cl)cc21 (stereo not given)",
    "TGI": "36.8 µM"
  },
  {
    "Molecule": "O[C@H]1CO[C@H]2[C@@H]1OC[C@@H]2Oc1ccc(Nc2ccnc(Nc3ccc(O[C@H]4CO[C@H]5[C@@H]4OC[C@@H]5O)c(Cl)c3)n2)cc1Cl",
    "TGI": "3.61 µM"
  },
  {
    "Molecule": "O=C(O)C/C=C/CC(=O)O",
    "TGI": "> 100 µM"
  },
  {
    "Molecule": "Cn1c(/C=C(\\O)c2ccc(Cl)cc2)nc2ccccc21",
    "TGI": "> 100 µM"
  },
  {
    "Molecule": "CCCCCCCCCCCC(=O)OCCOCCOCCOCCOCCOCc1ccc(OC)cc1",
    "TGI": "> 100 µM"
  },
  {
    "Molecule": "N=C(N)c1ccc(N2CCCN(c3ccc(C(=N)N)cc3)CC2)cc1",
    "TGI": "> 100 µM"
  }
]

----------
System: SF-539 CNS
Assay: NCI tumour cell line growth inhibition, 48 h
Assay readout: log10 of TGI (log10 of the value in µM)

[
  {
    "Compound": "CC1=C(CCC(C)N(C)Cc2ccc(OCCCN3CCCC3)cc2)C(C)(C)CCC1 (centres undefined)",
    "Target system": "SF-539 CNS",
    "log10 of TGI": 0.52
  },
  {
    "Compound": "CCC1CN2CCc3cc(OC)c(OC)cc3C2CC1CC1c2cc(OC)c(OC)cc2CCN1C(=O)C1CCCN1C(=O)OCc1ccccc1 (centres undefined)",
    "Target system": "SF-539 CNS",
    "log10 of TGI": 1.52
  },
  {
    "Compound": "CNC(=O)N1CN(c2ccccc2)C2(CCN(CCCC(=O)c3ccc(F)cc3)CC2)C1=O",
    "Target system": "SF-539 CNS",
    "log10 of TGI": 1.53
  },
  {
    "Compound": "COc1ccc(N=c2ssc3c(=S)ssc23)cc1",
    "Target system": "SF-539 CNS",
    "log10 of TGI": 1.98
  },
  {
    "Compound": "O=C1OC(CCCl)(c2ccccc2)CC1CN1CCOCC1 (centres undefined)",
    "Target system": "SF-539 CNS",
    "log10 of TGI": 1.85
  },
  {
    "Compound": "c1ccc2c(c1)c(NCCCCN1CCCCC1)cc1c3ccccc3c(NCCCCN3CCCCC3)cc21",
    "Target system": "SF-539 CNS",
    "log10 of TGI": 1.57
  },
  {
    "Compound": "Cc1cc2c3ccc(C)[n+](C)c3ccc2n1C",
    "Target system": "SF-539 CNS",
    "log10 of TGI": 1.33
  },
  {
    "Compound": "CCC(NC(C)c1ccccc1)C(O)c1ccc(OCc2ccccc2)c(OCc2ccccc2)c1 (centres undefined)",
    "Target system": "SF-539 CNS",
    "log10 of TGI": 1.52
  }
]

----------
System: NCI-H226 lung
Test: NCI tumour cell line growth inhibition, 48 h; in the data active = GI50 below about 0.43 µM; inactive = the rest
Labels: active, inactive

[
  {
    "Molecule": "Cc1ccc(C2=NOC3=c4ccccc4=CSC3=C2c2ccc([N+](=O)[O-])cc2)cc1",
    "Discrete label": "inactive"
  },
  {
    "Molecule": "C=CC(=O)N(C)[C@H]1C[C@H]2OC(C)(C1OC)n1c3ccccc3c3c4c(c5c6ccccc6n2c5c31)C(=O)NC4 (stereo not given in full)",
    "Discrete label": "active"
  },
  {
    "Molecule": "Cc1cc(N/N=C/c2nc(-c3ccc(Br)cc3)oc2C)c2cc(Cl)ccc2n1",
    "Discrete label": "inactive"
  },
  {
    "Molecule": "Cc1ccc(NC(=O)/C=C/c2ccccc2)c(C(N)=O)c1",
    "Discrete label": "inactive"
  },
  {
    "Molecule": "CC(C)(C)c1n[nH]c(=S)n(/N=C/c2ccc(F)c(Oc3ccccc3)c2)c1=O",
    "Discrete label": "inactive"
  }
]

Numbers sourced from PubChem BioAssay (NCI).
